These entries and their values trace back to the supplement of paper PMC11061612.

- Tested on: LC-1-sq (Squamous Cell Lung Carcinoma)
- PROTOCOL_NOTES: Bliss excess, mean over the matrix (fraction); higher = more synergy
Each entry below lists one item and its recorded Bliss excess value.
MEASUREMENT_KIND: Bliss excess

{"MOLECULE": "CN(C)CCCOc1ccc(-c2ccc3ncc4c(c3c2)n(C2CCOCC2)c(=O)n4C)cn1 [AZD0156] + CCN(CCO)CCCOc1ccc2c(Nc3cc(CC(=O)Nc4cccc(F)c4)[nH]n3)ncnc2c1 [AZD2811] (first compound max 1 µM, 7x7, partner max 1 µM)", "ASSAYED_TARGET": "LC-1-sq (Squamous Cell Lung Carcinoma)", "RESULT_NUMBER": 0.0392}
{"MOLECULE": "CCc1c2c(nc3ccc(O)cc13)-c1cc3c(c(=O)n1C2)COC(=O)[C@]3(O)CC [SN-38] + CN(C)CCCOc1ccc(-c2ccc3ncc4c(c3c2)n(C2CCOCC2)c(=O)n4C)cn1 [AZD0156] (first compound max 0.3 µM, 7x7, partner max 1 µM)", "ASSAYED_TARGET": "LC-1-sq (Squamous Cell Lung Carcinoma)", "RESULT_NUMBER": 0.0912}
{"MOLECULE": "COc1cccc(OCCCN)c1-c1cc(Nc2cnc(C#N)cn2)n[nH]1 [Prexasertib] + C[C@@H]1COCCN1C2=NC(=NC(=C2)C3(CC3)[S@](=N)(=O)C)C4=C5C=CNC5=NC=C4 [AZD6738] (first compound max 1 µM, 7x7, partner max 10 µM)", "ASSAYED_TARGET": "LC-1-sq (Squamous Cell Lung Carcinoma)", "RESULT_NUMBER": -0.0361}
{"MOLECULE": "COc1cccc(OCCCN)c1-c1cc(Nc2cnc(C#N)cn2)n[nH]1 [Prexasertib] + C=CCn1c(=O)c2cnc(Nc3ccc(N4CCN(C)CC4)cc3)nc2n1-c1cccc(C(C)(C)O)n1 [AZD1775] (first compound max 1 µM, partner max 1 µM)", "ASSAYED_TARGET": "LC-1-sq (Squamous Cell Lung Carcinoma)", "RESULT_NUMBER": 0.0581}

----------
- Tested on: HCC1937 (Breast Carcinoma)
- PROTOCOL_NOTES: Bliss excess, mean over the matrix (fraction); higher = more synergy
MEASUREMENT_KIND: Bliss excess

{"COMPOUND": "NC1(C(=O)N[C@@H](CCO)c2ccc(Cl)cc2)CCN(c2ncnc3[nH]ccc23)CC1 [Capivasertib] + CC(C)n1c(=O)n(C)c2cnc3cc(F)c(-c4ccc(OCCCN5CCCCC5)nc4)cc3c21 [AZD1390] (first compound max 10 µM, 7x7, partner max 0.3 µM)", "RESULT_NUMBER": -0.0666}
{"COMPOUND": "NC1(C(=O)N[C@@H](CCO)c2ccc(Cl)cc2)CCN(c2ncnc3[nH]ccc23)CC1 [Capivasertib] + COc1nnc2ccc(N3CCC(c4ccc(OCCN5CCN(C)C(=O)[C@H]5C)cc4)CC3)nn12 [AZD5153] (first compound max 10 µM, 7x7, partner max 1 µM)", "RESULT_NUMBER": 0.0189}
{"COMPOUND": "CN(CCO)CC[C@H](CSc1ccccc1)Nc1ccc(S(=O)(=O)NC(=O)c2ccc(N3CCC([C@@H](O)c4ccccc4-c4ccc(Cl)cc4)CC3)cc2)cc1S(=O)(=O)C(F)(F)F [AZD4320] + Cc1cc2ncnn2cc1Nc1ncc2c(n1)n(C1CCOCC1)c(=O)n2C [AZD7648] (first compound max 1 µM, 7x7, partner max 10 µM)", "RESULT_NUMBER": -0.0352}

----------
- System: NCI-H2122 (Lung Adenocarcinoma)
- PROTOCOL_NOTES: Bliss excess, mean over the matrix (fraction); higher = more synergy
Each entry below lists one item and its recorded Bliss excess value.

{"MOLECULE": "CC1(C)CCC(CN2CCN(c3ccc(C(=O)NS(=O)(=O)c4ccc(NCC5CCOCC5)c([N+](=O)[O-])c4)c(Oc4cnc5[nH]ccc5c4)c3)CC2)=C(c2ccc(Cl)cc2)C1 [Venetoclax] + Cn1cnc2c(F)c(Nc3ccc(Br)cc3Cl)c(C(=O)NOCCO)cc21 [Selumetinib] (first compound max 1 µM, 7x7, partner max 3 µM)", "Bliss excess": 0.0375}
{"MOLECULE": "Cc1c2c(nn1C)CSCc1cc(n(C)n1)CSc1cc(c3ccccc3c1)OCCCc1c(C(=O)O)n(C)c3c-2c(Cl)ccc13 [AZD5991] + C[C@@H](Nc1cc(F)cc(F)c1)c1cc(C(=O)N(C)C)cc2c(=O)cc(N3CCOCC3)oc12 [AZD8186] (first compound max 1 µM, 7x7, partner max 3 µM)", "Bliss excess": 0.0684}
{"MOLECULE": "COc1nnc2ccc(N3CCC(c4ccc(OCCN5CCN(C)C(=O)[C@H]5C)cc4)CC3)nn12 [AZD5153] + Cc1c2c(nn1C)CSCc1cc(n(C)n1)CSc1cc(c3ccccc3c1)OCCCc1c(C(=O)O)n(C)c3c-2c(Cl)ccc13 [AZD5991] (first compound max 1 µM, 7x7, partner max 1 µM)", "Bliss excess": -0.0402}

----------
Each entry below lists one item and its recorded combination Emax value.
- System: Mo-T (Other Blood Carcinomas)
- PROTOCOL_NOTES: combination Emax (second highest fraction inhibited in the dose matrix, 72 h); higher = more inhibition; extreme values may be limits of the assay
MEASUREMENT_KIND: combination Emax

{"MOLECULE": "CCc1c2c(nc3ccc(O)cc13)-c1cc3c(c(=O)n1C2)COC(=O)[C@]3(O)CC [SN-38] + CN(C)CCCOc1ccc(-c2ccc3ncc4c(c3c2)n(C2CCOCC2)c(=O)n4C)cn1 [AZD0156] (first compound max 0.3 µM, 7x7, partner max 1 µM)", "ASSAYED_TARGET": "Mo-T (Other Blood Carcinomas)", "MEASUREMENT_KIND": "combination Emax", "RESULT_NUMBER": 0.673}
{"MOLECULE": "O=C(c1cc(Cc2n[nH]c(=O)c3ccccc23)ccc1F)N1CCN(C(=O)C2CC2)CC1 [Olaparib] + CN(CC[C@H](CSC1=CC=CC=C1)NC2=C(C=C(C=C2)S(=O)(=O)NC(=O)C3=CC=C(C=C3)N4CCC(CC4)[C@H](C5=CC=CC=C5C6=CC=C(C=C6)Cl)O)S(=O)(=O)C(F)(F)F)CCO [AZD4320] (first compound max 10 µM, 7x7, partner max 1 µM)", "ASSAYED_TARGET": "Mo-T (Other Blood Carcinomas)", "MEASUREMENT_KIND": "combination Emax", "RESULT_NUMBER": 0.844}
{"MOLECULE": "COc1cccc(OCCCN)c1-c1cc(Nc2cnc(C#N)cn2)n[nH]1 [Prexasertib] + Cc1cc2ncnn2cc1Nc1ncc2c(n1)n(C1CCOCC1)c(=O)n2C [AZD7648] (first compound max 1 µM, 7x7, partner max 10 µM)", "ASSAYED_TARGET": "Mo-T (Other Blood Carcinomas)", "MEASUREMENT_KIND": "combination Emax", "RESULT_NUMBER": 0.523}
{"MOLECULE": "Cc1nc(-c2cn3c(n2)-c2ccc(-c4cnn(C(C)(C)C(N)=O)c4)cc2OCC3)n(C(C)C)n1 [Taselisib] + O=C(Nc1ccc2[nH]nc(-c3ccncc3)c2c1)[C@@H]1CCN(CC(=O)N2CCN(c3ccc(-c4ncccn4)cc3)CC2)C1 [SCH772984] (first compound max 10 µM, 7x7, partner max 5 µM)", "ASSAYED_TARGET": "Mo-T (Other Blood Carcinomas)", "MEASUREMENT_KIND": "combination Emax", "RESULT_NUMBER": 0.477}
{"MOLECULE": "COc1cccc(OCCCN)c1-c1cc(Nc2cnc(C#N)cn2)n[nH]1 [Prexasertib] + C[C@@H]1COCCN1C2=NC(=NC(=C2)C3(CC3)[S@](=N)(=O)C)C4=C5C=CNC5=NC=C4 [AZD6738] (first compound max 1 µM, 7x7, partner max 10 µM)", "ASSAYED_TARGET": "Mo-T (Other Blood Carcinomas)", "MEASUREMENT_KIND": "combination Emax", "RESULT_NUMBER": 0.571}
{"MOLECULE": "CC(=O)Nc1cccc(-n2c(=O)n(C3CC3)c(=O)c3c(Nc4ccc(I)cc4F)n(C)c(=O)c(C)c32)c1 [Trametinib] + Cc1nc(-c2cn3c(n2)-c2ccc(-c4cnn(C(C)(C)C(N)=O)c4)cc2OCC3)n(C(C)C)n1 [Taselisib] (first compound max 1 µM, 7x7, partner max 10 µM)", "ASSAYED_TARGET": "Mo-T (Other Blood Carcinomas)", "MEASUREMENT_KIND": "combination Emax", "RESULT_NUMBER": 0.524}
{"MOLECULE": "Cn1cnc2c(F)c(Nc3ccc(Br)cc3Cl)c(C(=O)NOCCO)cc21 [Selumetinib] + C=CCn1c(=O)c2cnc(Nc3ccc(N4CCN(C)CC4)cc3)nc2n1-c1cccc(C(C)(C)O)n1 [AZD1775] (first compound max 10 µM, partner max 1 µM)", "ASSAYED_TARGET": "Mo-T (Other Blood Carcinomas)", "MEASUREMENT_KIND": "combination Emax", "RESULT_NUMBER": 0.482}
{"MOLECULE": "CC(=O)c1c(C)c2cnc(Nc3ccc(N4CCNCC4)cn3)nc2n(C2CCCC2)c1=O [Palbociclib] + Cn1cnc2c(F)c(Nc3ccc(Br)cc3Cl)c(C(=O)NOCCO)cc21 [Selumetinib] (first compound max 10 µM, 7x7, partner max 10 µM)", "ASSAYED_TARGET": "Mo-T (Other Blood Carcinomas)", "MEASUREMENT_KIND": "combination Emax", "RESULT_NUMBER": 0.329}
{"MOLECULE": "Cc1cc2ncnn2cc1Nc1ncc2c(n1)n(C1CCOCC1)c(=O)n2C [AZD7648] + COc1cc([C@@H]2c3cc4c(cc3[C@@H](O[C@@H]3O[C@@H]5CO[C@@H](C)O[C@H]5[C@H](O)[C@H]3O)[C@H]3COC(=O)[C@H]23)OCO4)cc(OC)c1O [Etoposide] (first compound max 10 µM, 7x7, partner max 10 µM)", "ASSAYED_TARGET": "Mo-T (Other Blood Carcinomas)", "MEASUREMENT_KIND": "combination Emax", "RESULT_NUMBER": 0.909}
